Reported pIC50 values for a set of molecules
target: hBChE (Homo sapiens, UniProt P06276); experiment: biochemical; assay type: biochemical
Sequence (P06276 29-602): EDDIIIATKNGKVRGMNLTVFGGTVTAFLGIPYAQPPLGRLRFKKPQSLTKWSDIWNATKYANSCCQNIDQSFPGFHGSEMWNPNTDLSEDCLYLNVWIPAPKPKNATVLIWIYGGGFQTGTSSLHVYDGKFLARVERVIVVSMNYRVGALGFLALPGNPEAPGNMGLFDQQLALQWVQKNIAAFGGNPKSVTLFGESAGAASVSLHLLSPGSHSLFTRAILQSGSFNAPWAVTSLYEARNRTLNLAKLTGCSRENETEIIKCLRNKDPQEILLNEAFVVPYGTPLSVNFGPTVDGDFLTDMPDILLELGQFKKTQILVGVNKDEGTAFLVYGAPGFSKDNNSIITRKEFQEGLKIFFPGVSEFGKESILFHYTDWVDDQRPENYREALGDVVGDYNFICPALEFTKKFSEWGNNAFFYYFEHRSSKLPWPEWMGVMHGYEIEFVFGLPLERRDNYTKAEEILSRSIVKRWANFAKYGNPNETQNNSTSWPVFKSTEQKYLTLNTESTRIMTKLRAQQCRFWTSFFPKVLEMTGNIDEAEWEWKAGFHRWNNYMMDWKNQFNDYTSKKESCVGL
pIC50: −log10 of the molar value.
quantityName: pIC50

molecule	tgt	readoutQualifier	measured
C#CCN1CCN(CCCOc2cccc3ccc(/C=[N+](\[O-])Cc4ccccc4)nc23)CC1 [Compound 8]	hBChE (Homo sapiens, UniProt P06276)	=	7.51
[O-]/[N+](=C\c1ccc2cccc(OCCCN3CCCCC3)c2n1)Cc1ccccc1 [Compound 4]	hBChE (Homo sapiens, UniProt P06276)	=	7.11
[O-]/[N+](=C\c1ccc2cccc(O)c2n1)Cc1ccccc1 [Compound 11]	hBChE (Homo sapiens, UniProt P06276)	≥	8.96

---

Reported EC50 values for a set of molecules
assay: DPPH radical-scavenging assay; conditions: read-out: free-radical scavenging potency EC50 ± SEM (concentration that scavenged 50% of the DPPH free radicals); DPPH in MeOH, 90 min, room temperature, dark

mol	EC50 [µM]
[O-]/[N+](=C\c1ccc2cccc(O)c2n1)Cc1ccccc1	126
CC(C)(C)/[N+]([O-])=C/c1ccc2cccc(O)c2n1	119

---

Reported pIC50 values for a set of compounds
biological target: hBChE (Homo sapiens); assay: biochemical; assay type: biochemical; details: read-out: IC50 ± SEM hBChE
pIC50: −log10 of the molar value.

mol	pIC50
CC(C)(C)/[N+]([O-])=C/c1ccc2cccc(O)c2n1	8.29
C#CCN1CCN(CCCOc2cccc3ccc(/C=[N+](\[O-])C(C)(C)C)nc23)CC1	8.14
CC(C)(C)/[N+]([O-])=C/c1ccc2cccc(OCCCN3CCCCC3)c2n1	7.60

---

Reported pIC50 values for a set of compounds
biological target: hMAO-B (Homo sapiens, UniProt P27338)
Sequence (P27338 whole entry): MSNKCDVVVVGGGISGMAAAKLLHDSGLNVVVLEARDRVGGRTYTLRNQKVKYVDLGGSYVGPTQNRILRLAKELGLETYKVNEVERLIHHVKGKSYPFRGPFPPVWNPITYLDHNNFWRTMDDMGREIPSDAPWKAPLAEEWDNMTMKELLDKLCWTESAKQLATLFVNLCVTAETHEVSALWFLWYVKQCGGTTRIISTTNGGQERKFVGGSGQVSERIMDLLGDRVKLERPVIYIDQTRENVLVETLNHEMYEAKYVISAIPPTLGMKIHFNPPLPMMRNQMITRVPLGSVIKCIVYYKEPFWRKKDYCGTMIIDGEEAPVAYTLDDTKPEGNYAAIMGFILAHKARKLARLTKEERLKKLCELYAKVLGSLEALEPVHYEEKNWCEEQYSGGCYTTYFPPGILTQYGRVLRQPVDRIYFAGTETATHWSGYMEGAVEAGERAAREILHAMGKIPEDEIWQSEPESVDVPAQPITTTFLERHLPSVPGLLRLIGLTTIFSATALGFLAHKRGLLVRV
pIC50: −log10 of the molar value.

mol	pIC50
CC(C)(C)/[N+]([O-])=C/c1ccc2cccc(O)c2n1	4.79
C/[N+]([O-])=C/c1ccc2cccc(O)c2n1	5.00

---

target: hAChE (Homo sapiens, UniProt P22303)
Sequence (P22303 32-614): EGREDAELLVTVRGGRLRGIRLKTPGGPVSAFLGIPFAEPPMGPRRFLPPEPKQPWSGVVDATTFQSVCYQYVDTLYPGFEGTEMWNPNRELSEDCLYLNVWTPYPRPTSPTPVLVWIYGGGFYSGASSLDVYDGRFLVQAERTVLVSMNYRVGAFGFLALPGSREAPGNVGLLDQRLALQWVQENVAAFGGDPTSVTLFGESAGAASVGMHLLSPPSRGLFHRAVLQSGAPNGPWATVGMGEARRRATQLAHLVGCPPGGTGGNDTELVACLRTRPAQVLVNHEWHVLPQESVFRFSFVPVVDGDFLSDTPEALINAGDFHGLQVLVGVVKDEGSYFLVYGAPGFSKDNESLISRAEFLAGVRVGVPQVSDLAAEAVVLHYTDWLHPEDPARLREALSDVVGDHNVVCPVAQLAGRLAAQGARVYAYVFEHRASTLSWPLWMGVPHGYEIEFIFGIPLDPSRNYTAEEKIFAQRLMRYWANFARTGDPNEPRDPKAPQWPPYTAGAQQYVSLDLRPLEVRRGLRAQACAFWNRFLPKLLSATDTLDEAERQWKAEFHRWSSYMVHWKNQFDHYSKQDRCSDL
pIC50: −log10 of the molar value.
quantityName: pIC50

compound	measured
[O-]/[N+](=C\c1ccc2cccc(O)c2n1)Cc1ccccc1 [Compound 11]	7.54
